The origin of these recorded values is ChEMBL document CHEMBL1135500.

Kindly supply the reported Activity values for the records listed here.
- Tested on: Pseudomonas aeruginosa
- procedure-details: Siderophore activity determined using growth promoting assay in SG137 strain of Pseudomonas aeruginosa under iron limited conditions
- Assay type: functional
Just the number, please, no unit after it.

Recorded Activity for CC(=O)Oc1cccc(C(=O)NCCCCN(CC(=O)O)C(=O)c2cccc(OC(C)=O)c2OC(C)=O)c1OC(C)=O , please? 26

Recorded Activity for CC(=O)Oc1cccc(C(=O)Nc2cc(NC(=O)c3cccc(OC(C)=O)c3OC(C)=O)cc(C(=O)O)c2)c1OC(C)=O , please? 20

Recorded Activity for CC(=O)N(O)CCCCCNC(=O)CCC(=O)N(O)CCCCCNC(=O)CCC(=O)N(O)CCCCCN , please? 30

Recorded Activity for CC(=O)Oc1cccc(C(=O)NCCCCCN(CC(=O)O)C(=O)c2cccc(OC(C)=O)c2OC(C)=O)c1OC(C)=O , please? 28
